Provide the recorded kon for the entries that follow.
biological target: T1, recombinant human IL-6 (human, UniProt P05231 30-212); experiment: SPR (Biacore), purified IgG on Protein A, 37 C
T1 construct: Flowed in solution over the captured antibodies
T1 sequence (P05231 30-212 limits assumed): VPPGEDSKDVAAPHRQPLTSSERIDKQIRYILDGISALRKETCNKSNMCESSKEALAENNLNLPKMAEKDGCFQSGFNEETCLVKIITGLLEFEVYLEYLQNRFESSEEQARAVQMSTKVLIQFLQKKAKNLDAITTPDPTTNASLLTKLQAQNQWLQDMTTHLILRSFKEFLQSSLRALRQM
Numbers only, in M⁻¹ s⁻¹.

{"columns": ["binder", "experimental readout", "numeric result"],
 "data": [
  ["anti-IL-6 antibody, heavy chain M34W, light chain WT (antibody, IgG1, V domains shown, Full IgG1 tested; VL as in m2) VH: EVQLVESGGGLVQPGGSLRLSCAASGFTFSPFAWSWVRQAPGKGLEWVAKISPGGSWTYYSDTVTGRFTFSLDTSKSTAYLQMNSLRAEDTAVYYCARQLWGYYALDIWGQGTLVTVSS VL: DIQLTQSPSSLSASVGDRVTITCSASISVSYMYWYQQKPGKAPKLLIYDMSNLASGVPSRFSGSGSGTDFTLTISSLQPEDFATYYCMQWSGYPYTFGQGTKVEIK", "kon", 599000],
  ["anti-IL-6 antibody, parent sequence (heavy chain WT, light chain WT) (antibody, V domains shown, Tested as full antibody from Expi293 cells in an engineered human IgG1 framework (L234A, L235A, G237A, L443C, EU); also called wild-type; parent molecule) VH: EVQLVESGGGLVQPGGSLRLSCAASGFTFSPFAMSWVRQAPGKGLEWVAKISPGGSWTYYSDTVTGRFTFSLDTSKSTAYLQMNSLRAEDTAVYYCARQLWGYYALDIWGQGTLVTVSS VL: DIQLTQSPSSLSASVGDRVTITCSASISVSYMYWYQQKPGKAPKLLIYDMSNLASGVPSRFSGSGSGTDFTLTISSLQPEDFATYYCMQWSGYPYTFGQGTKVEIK", "kon", 880000]
]}

// below: kon requested for another binder
Asked: Need kon, item anti-IL-6 antibody, heavy chain D107E, light chain WT (antibody, IgG1, V domains shown, Full IgG1 tested; V domains derived as in m2) VH: EVQLVESGGGLVQPGGSLRLSCAASGFTFSPFAMSWVRQAPGKGLEWVAKISPGGSWTYYSDTVTGRFTFSLDTSKSTAYLQMNSLRAEDTAVYYCARQLWGYYALEIWGQGTLVTVSS VL: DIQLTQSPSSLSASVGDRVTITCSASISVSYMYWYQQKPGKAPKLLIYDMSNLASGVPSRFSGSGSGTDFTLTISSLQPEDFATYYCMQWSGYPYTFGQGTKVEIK
Given back: 762000
